Measured TGI values are reported for all entries that follow.
Test system: DMS 114 small cell lung
Assay: NCI tumour cell line growth inhibition, 48 h

The examples below pair each entry with its known result.
CC1=NN(C(=O)c2ccc(C)cc2)C(=O)C1N=Nc1ccccc1C(=O)O (stereo not given): > 100 µM
O=C(Nc1ccc(Cl)c(Cl)c1)C1C(=O)N(c2ccc(Cl)c(Cl)c2)C(=O)/C1=N\O (stereo not given): 83.7 µM

// TGI lookup, molecule = `CCOc1ccc(/C=C2/C(=O)N=C(N)N=C2N)cc1OCC` , result: > 100 µM

The recorded TGI for entry Cc1c(C)c2ccc(OC(C)C(=O)O)cc2oc1=O (stereo not given) equals > 100 µM

get_value(item= CSc1nc(C)cc(=O)n1C1OC(COC(C)=O)C(OC(C)=O)C(OC(C)=O)C1OC(C)=O (stereo not given) , readout=TGI) returns > 100 µM
